Biological target: sGC α1/β1 heterodimer (Homo sapiens (Human), UniProt Q02108+Q02153)
Sequence (Q02108 whole entry): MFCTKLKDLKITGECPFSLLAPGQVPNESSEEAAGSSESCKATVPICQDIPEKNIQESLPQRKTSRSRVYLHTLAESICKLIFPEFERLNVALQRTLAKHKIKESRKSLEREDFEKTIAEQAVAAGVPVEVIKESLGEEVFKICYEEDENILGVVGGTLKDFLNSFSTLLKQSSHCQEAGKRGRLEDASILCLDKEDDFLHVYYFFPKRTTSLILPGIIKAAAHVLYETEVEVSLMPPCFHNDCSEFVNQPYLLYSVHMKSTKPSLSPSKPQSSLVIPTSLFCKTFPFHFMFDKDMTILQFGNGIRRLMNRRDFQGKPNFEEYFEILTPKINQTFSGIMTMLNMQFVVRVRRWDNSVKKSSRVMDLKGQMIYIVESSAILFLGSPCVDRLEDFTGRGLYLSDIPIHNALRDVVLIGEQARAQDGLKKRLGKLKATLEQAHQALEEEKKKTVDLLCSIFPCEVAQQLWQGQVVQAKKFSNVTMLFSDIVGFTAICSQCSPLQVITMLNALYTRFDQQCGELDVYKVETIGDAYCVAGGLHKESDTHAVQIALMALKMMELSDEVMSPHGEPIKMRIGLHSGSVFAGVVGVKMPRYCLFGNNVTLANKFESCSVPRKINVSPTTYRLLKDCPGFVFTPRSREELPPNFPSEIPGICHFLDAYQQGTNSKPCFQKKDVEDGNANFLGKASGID
Sequence (Q02153 whole entry): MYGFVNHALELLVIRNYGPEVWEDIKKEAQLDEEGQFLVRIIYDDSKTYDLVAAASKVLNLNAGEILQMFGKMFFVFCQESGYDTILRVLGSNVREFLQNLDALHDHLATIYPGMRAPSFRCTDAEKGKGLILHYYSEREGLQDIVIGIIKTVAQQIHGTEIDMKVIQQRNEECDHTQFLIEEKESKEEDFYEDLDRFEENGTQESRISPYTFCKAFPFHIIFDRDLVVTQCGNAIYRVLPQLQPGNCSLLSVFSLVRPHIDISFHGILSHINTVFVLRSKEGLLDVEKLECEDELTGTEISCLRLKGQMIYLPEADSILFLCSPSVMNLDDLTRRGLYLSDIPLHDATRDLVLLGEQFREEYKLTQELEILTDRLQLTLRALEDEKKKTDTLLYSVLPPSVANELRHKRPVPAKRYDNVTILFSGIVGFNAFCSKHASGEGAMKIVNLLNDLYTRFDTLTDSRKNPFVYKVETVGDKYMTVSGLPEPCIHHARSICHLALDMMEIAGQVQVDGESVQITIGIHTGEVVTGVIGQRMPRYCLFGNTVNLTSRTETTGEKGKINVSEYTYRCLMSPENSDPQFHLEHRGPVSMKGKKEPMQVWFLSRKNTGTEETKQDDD
Experiment: Cell-based sGC functional assay (cyclic GMP assay for sGC activator: CASA assay)
Conditions: CHO-K1, activity expressed as percentage of compound A (standard); CHO-K1/sGC cells; read-out: % Activation
Protocol: Cell-Based sGC Functional Assay (Cyclic GMP Assay for sGC Activator: CASA Assay) Soluble guanylate cyclase (sGC) is a heme-containing enzyme that converts GTP to secondary messenger cGMP. […] A CHO-K1 cell line stably expressing the sGC α1/β1 heterodimer was generated using a standard transfection protocol. […] The level of intracellular cGMP was determined using an HTRF-based assay kit (CisBio, 62GM2PEC), which detects the displacement of a fluorescence labeled cGMP from its specific antibody. […]
Listing: Emax of selected compounds
Provide the reading as a plain figure in %.

Emax in this record for CC(C)(Cc1cccc(C2(C)C(=O)Nc3nc(-c4nn(CCC(F)(F)C(F)(F)F)c5ncccc45)nc(N)c32)c1)C(=O)O (stereo not shown) [Example 11B] : 99

Continuing:
Emax in this record for CC(C)(Cc1nc(C2(C)C(=O)Nc3nc(-c4nn(Cc5ccccc5F)c5cc(Cl)ccc45)nc(N)c32)co1)C(=O)O (stereo not shown) [Example 128A] : 117

###

Listing: log10(EC50) of selected compounds
target: sGC α1/β1 heterodimer (Homo sapiens (Human), UniProt Q02108+Q02153); assay: Cell-based sGC functional assay (cyclic GMP assay for sGC activator: CASA assay); conditions: inflection point, 4P fit; CHO-K1/sGC cells; read-out: IP
Note: values are log10 of EC50 expressed in nM.

log10(EC50) in this record for CC(C)(Cc1csc([C@]2(C)C(=O)Nc3nc(-c4nn(Cc5ccccc5F)c5ncccc45)nc(N)c32)n1)C(=O)O [Example 90B] : 2.11

log10(EC50) in this record for CC(C)(Cc1csc([C@]2(C)C(=O)Nc3nc(-c4nn(CCC(F)(F)C(F)(F)F)c5ncccc45)nc(N)c32)n1)C(=O)NO [Example 97B] : 3.06

log10(EC50) in this record for CC(C)(CCc1coc(C2(C)C(=O)Nc3nc(-c4nn(Cc5ccccc5F)c5cc(F)ccc45)nc(N)c32)n1)C(=O)O (stereo not drawn) [Example 193B] : 1.84

log10(EC50) in this record for Cc1ccc(F)c(Cn2nc(-c3nc(N)c4c(n3)NC(=O)[C@@]4(C)c3nc(CC(C)(C)C(=O)O)cs3)c3ccc(Cl)cc32)c1 (single isomer, unassigned) [Example 214A] : 2.51

log10(EC50) in this record for Cc1nc([C@]2(C)C(=O)Nc3nc(-c4nn(CCC(F)(F)C(F)(F)F)c5ncccc45)nc(N)c32)sc1CC(=O)O [Example 83B] : 3.15

log10(EC50) in this record for CC1(c2ccc(CCCC(=O)O)cc2)C(=O)Nc2nc(-c3nn(Cc4ccccc4F)c4cc(Cl)ccc34)nc(N)c21 (stereo not drawn) [Example 115A] : 2.09

###

target: sGC α1/β1 heterodimer (Homo sapiens (Human), UniProt Q02108+Q02153); test: Cell-based sGC functional assay (cyclic GMP assay for sGC activator: CASA assay); details: CHO-K1, activity expressed as percentage of compound A (standard); CHO-K1/sGC cells; read-out: % Activation
Listing: Emax of selected compounds
Provide the reading as a plain figure in %.

These solved cases illustrate the format of a correct answer.
# C[C@H](NC(=O)CCc1ccc([C@]2(C)C(=O)Nc3nc(-c4nn(Cc5ccccc5F)c5ncccc45)nc(N)c32)cc1)C(=O)O [Example 103B] with sGC α1/β1 heterodimer (Homo sapiens (Human), UniProt Q02108+Q02153): Emax is 104

# CC(C)(Cc1coc(C2(C)C(=O)Nc3nc(-c4nn(Cc5ccccc5F)c5ccccc45)nc(N)c32)n1)c1nn[nH]n1 (stereo not drawn) [Example 248B] with sGC α1/β1 heterodimer (Homo sapiens (Human), UniProt Q02108+Q02153): Emax is 106

Continuing:
# CC1(c2ccc(CCCC(=O)O)cc2)C(=O)Nc2nc(-c3nn(Cc4ccccc4F)c4ncccc34)nc(N)c21 (stereo not drawn) [Example 113B] with sGC α1/β1 heterodimer (Homo sapiens (Human), UniProt Q02108+Q02153): Emax is 89

###

target: sGC α1/β1 heterodimer (Homo sapiens (Human), UniProt Q02108+Q02153); experiment: Cell-based sGC functional assay (cyclic GMP assay for sGC activator: CASA assay); details: inflection point, 4P fit; CHO-K1/sGC cells; read-out: IP
measurementKind: EC50 (µM)
Provide the reading as a plain figure in µM.

EC50 in this record for CC(C)(Cc1coc(C2(C)C(=O)Nc3nc(-c4nn(Cc5cccc(F)c5)c5cc(F)ccc45)nc(N)c32)n1)C(=O)O (stereo not shown) [Example 195A] : 0.194

Continuing:
EC50 in this record for CC1(c2ccc(CCc3nn[nH]n3)cn2)C(=O)Nc2nc(-c3nn(Cc4ccccc4F)c4ccccc34)nc(N)c21 (single isomer, unassigned) [Example 246A] : 7.12

EC50 in this record for CC(C)(CCc1coc(C2(C)C(=O)Nc3nc(-c4nn(Cc5cccc(F)c5)c5cc(F)ccc45)nc(N)c32)n1)C(=O)O (stereo not shown) [Example 197B] : 0.125

EC50 in this record for CC1(c2ccc(CCCC(=O)O)cc2)C(=O)Nc2nc(-c3nn(Cc4ccccc4F)c4ncccc34)nc(N)c21 (stereo not shown) [Example 113B] : 0.568

###

Molecular target: sGC α1/β1 heterodimer (Homo sapiens (Human), UniProt Q02108+Q02153)
Experiment: Cell-based sGC functional assay (cyclic GMP assay for sGC activator: CASA assay)
Settings: CHO-K1, activity expressed as percentage of compound A (standard); CHO-K1/sGC cells; read-out: % Activation
Protocol: Cell-Based sGC Functional Assay (Cyclic GMP Assay for sGC Activator: CASA Assay) Soluble guanylate cyclase (sGC) is a heme-containing enzyme that converts GTP to secondary messenger cGMP. […] A CHO-K1 cell line stably expressing the sGC α1/β1 heterodimer was generated using a standard transfection protocol. […] The level of intracellular cGMP was determined using an HTRF-based assay kit (CisBio, 62GM2PEC), which detects the displacement of a fluorescence labeled cGMP from its specific antibody. […]
measurementKind: Emax (%)
Provide the reading as a plain figure in %.

# CC(C)(Cc1csc([C@]2(C)C(=O)Nc3nc(-c4nn(Cc5ccccc5F)c5ncc(F)cc45)nc(N)c32)n1)C(=O)O [Example 91B] with sGC α1/β1 heterodimer (Homo sapiens (Human), UniProt Q02108+Q02153): Emax is 123

Continuing:
# CC(C)(Cc1csc([C@]2(C)C(=O)Nc3nc(-c4nn(Cc5ccccc5F)c5cc(Cl)ccc45)nc(N)c32)n1)C(=O)O [Example 95B] with sGC α1/β1 heterodimer (Homo sapiens (Human), UniProt Q02108+Q02153): Emax is 118

# Nc1nc(-c2nn(Cc3ccccc3F)c3ncccc23)nc2c1C(c1ccc(CCC(=O)O)cc1)(C1CC1)C(=O)N2 (stereo not shown) [Example 148A] with sGC α1/β1 heterodimer (Homo sapiens (Human), UniProt Q02108+Q02153): Emax is 87.8

# Cc1oc(C2(C)C(=O)Nc3nc(-c4nn(Cc5cccc(F)c5)c5cc(F)ccc45)nc(N)c32)nc1CC(C)(C)C(=O)O (stereo not shown) [Example 198B] with sGC α1/β1 heterodimer (Homo sapiens (Human), UniProt Q02108+Q02153): Emax is 134

# CC(C)(Cc1csc([C@]2(C)C(=O)Nc3nc(-c4nn(Cc5cccc(F)c5)c5cc(F)ccc45)nc(N)c32)n1)C(=O)O [Example 194A] with sGC α1/β1 heterodimer (Homo sapiens (Human), UniProt Q02108+Q02153): Emax is 128

# C[C@@]1(c2ccc(CCC(=O)O)cc2)C(=O)Nc2nc(-c3nn(CC4CCCC4)c4cc(Cl)ccc34)nc(N)c21 [Example 160B] with sGC α1/β1 heterodimer (Homo sapiens (Human), UniProt Q02108+Q02153): Emax is 108

# CC1(c2nc(CCC(=O)O)co2)C(=O)Nc2nc(-c3nn(Cc4ccccc4F)c4ccccc34)nc(N)c21 (stereo not shown) [Example 54A] with sGC α1/β1 heterodimer (Homo sapiens (Human), UniProt Q02108+Q02153): Emax is 106

# CC(C)(Cc1csc([C@]2(C)C(=O)Nc3nc(-c4nn(Cc5cccc(F)c5F)c5cc(Cl)ccc45)nc(N)c32)n1)C(=O)O [Example 181A] with sGC α1/β1 heterodimer (Homo sapiens (Human), UniProt Q02108+Q02153): Emax is 112

# C[C@@]1(c2ccc(CCC(=O)O)cc2)C(=O)Nc2nc(-c3nn(Cc4ccc(F)cc4)c4ccccc34)nc(N)c21 (single isomer, unassigned) [Example 221B] with sGC α1/β1 heterodimer (Homo sapiens (Human), UniProt Q02108+Q02153): Emax is 92.1

# COCCn1nc(-c2nc(N)c3c(n2)NC(=O)[C@@]3(C)c2ccc(CCC(=O)O)cc2)c2ccc(Cl)cc21 (single isomer, unassigned) [Example 40B] with sGC α1/β1 heterodimer (Homo sapiens (Human), UniProt Q02108+Q02153): Emax is 94

# CC(C)(Cc1coc(C2(C3CC3)C(=O)Nc3nc(-c4nn(Cc5ccccc5F)c5cc(F)ccc45)nc(N)c32)n1)C(=O)O (stereo not shown) [Example 139B] with sGC α1/β1 heterodimer (Homo sapiens (Human), UniProt Q02108+Q02153): Emax is 135

# CC(C)(Cc1csc([C@]2(C)C(=O)Nc3nc(-c4nn(Cc5cccc(F)c5F)c5cc(F)ccc45)nc(N)c32)n1)C(=O)O [Example 199A] with sGC α1/β1 heterodimer (Homo sapiens (Human), UniProt Q02108+Q02153): Emax is 108

# CC1(c2ccc(Cc3nn[nH]n3)cc2)C(=O)Nc2nc(-c3nn(Cc4ccccc4F)c4cc(Cl)ccc34)nc(N)c21 (stereo not shown) [Example 244A] with sGC α1/β1 heterodimer (Homo sapiens (Human), UniProt Q02108+Q02153): Emax is 93.3
